- System: CP325
- MEASUREMENT DESCRIPTION: qHTS profiling for inhibitors of Plasmodium falciparum proliferation (AID 504749); further: nearly all actives have a fitted effect of over 60% in size
- RECORDED CONDITIONS: P. falciparum in erythrocytes, SYBR Green DNA, 72 h; series mostly up to 28.7 µM
Records with an inconclusive call do not appear. The source made the active and inactive calls. The call rests on the fitted dose curve; in most records, active means well fitted inhibition curve with a large enough effect; inconclusive means small, poorly fitted or top-dose-only effect; inactive means flat fitted curve, though single readings scatter.
Possible outcomes: y for active, n for inactive

COMPOUND	MEASURED TARGET	ASSIGNED LABEL
Brc1c(NC2=NCCN2)ccc2nccnc12	CP325	n
c1cnc(N2CCN(Cc3ccc4c(c3)OCO4)CC2)nc1	CP325	n
C[N+](C)(C)CCOC(N)=O	CP325	n
NC(=O)c1cn(Cc2c(F)cccc2F)nn1	CP325	n
Cc1ccc(S(=O)(=O)NC(=O)NN2CCCCCC2)cc1	CP325	n
CCN(CC)CCCN(c1ccccc1)C1Cc2ccccc2C1	CP325	y
OC(CCN1CCCCC1)(c1ccccc1)C1CCCCC1 (stereo not drawn)	CP325	n
CCCCOCCOCCOCc1cc2c(cc1CCC)OCO2	CP325	n
COc1ccc([C@@H]2Sc3ccccc3N(CCN(C)C)C(=O)[C@@H]2OC(C)=O)cc1	CP325	n
NCCCNCCSP(=O)(O)O	CP325	n
CC(=O)[C@@]1(O)CC[C@H]2[C@@H]3CCC4=CC(=O)CC[C@]4(C)[C@H]3CC[C@@]21C	CP325	n
CN(C)C/C=C(/c1ccc(Br)cc1)c1cccnc1	CP325	n
Cc1ccc(Cl)c(Nc2ccccc2C(=O)O)c1Cl	CP325	n
CC(C)(Oc1ccc(CCNC(=O)c2ccc(Cl)cc2)cc1)C(=O)O	CP325	n
C[N+](C)(C)CCOC(=O)CCC(=O)OCC[N+](C)(C)C	CP325	n
COC(=O)C1=C(C)NC(C)=C(C(=O)OC(C)(C)CN(C)CCC(c2ccccc2)c2ccccc2)C1c1cccc([N+](=O)[O-])c1 (stereo not drawn)	CP325	y
CN(C)C(=O)Oc1ccc[n+](C)c1	CP325	n
CN1C[C@H](C(=O)N[C@]2(C)O[C@@]3(O)[C@@H]4CCCN4C(=O)[C@H](Cc4ccccc4)N3C2=O)C[C@@H]2c3cccc4[nH]cc(c34)C[C@H]21	CP325	y
COc1ccc(CN(CCN(C)C)c2ccccn2)cc1	CP325	n
CCCCNC(=O)NS(=O)(=O)c1ccc(C)cc1	CP325	n
NC(Cc1ccc(Cl)cc1)C(=O)O (stereo not drawn)	CP325	n
CC(=O)OCC1=C(C(=O)O)N2C(=O)[C@@H](NC(=O)Cc3cccs3)[C@H]2SC1	CP325	n
O=C(O)CN(CCOCCOCCN(CC(=O)O)CC(=O)O)CC(=O)O	CP325	n

====

- System: 7G8
- MEASUREMENT DESCRIPTION: qHTS profiling for inhibitors of Plasmodium falciparum proliferation (AID 504749); further: nearly all actives have a fitted effect of over 60% in size; further: potency means the concentration at half of the fitted maximal effect
- RECORDED CONDITIONS: P. falciparum in erythrocytes, SYBR Green DNA, 72 h; series mostly up to 28.7 µM
Inconclusive results are not listed. Activity calls are given as the source filed them. Calls come from the whole dose curve; as a rule, active = well fitted inhibition curve with a large enough effect; inconclusive = small, poorly fitted or top-dose-only effect; inactive = flat fitted curve, though single readings scatter.

COMPOUND	Potency
CCN1CCc2nc(N)oc2CC1	inactive
CCN1CCC[C@H]1CNC(=O)c1c(O)c(Cl)cc(Cl)c1OC	inactive
CC(N=C(NC#N)Nc1ccncc1)C(C)(C)C (stereo not given)	inactive
CN=C(NC#N)NCCSCc1nc[nH]c1C	inactive
Cc1scc2c1N(C(=O)CN1CCN(C)CC1)c1ccccc1NC2=O	inactive
CN(C)C(=O)Oc1ccc[n+](C)c1	inactive
OC(CCN1CCCCC1)(c1ccccc1)C1CCCCC1 (stereo not given)	8.91 µM (active)
CC(C)(Oc1ccc(CCNC(=O)c2ccc(Cl)cc2)cc1)C(=O)O	inactive
C[N+](C)(C)CCOC(=O)CCC(=O)OCC[N+](C)(C)C	inactive
CN(C)CC[C@@H](c1ccc(Br)cc1)c1ccccn1	8.91 µM (active)
NC(N)=N/N=C/c1c(Cl)cccc1Cl	11.2 µM (active)
COc1ccc(CCN(C)CCCC(C#N)(c2cc(OC)c(OC)c(OC)c2)C(C)C)cc1OC (stereo not given)	10 µM (active)
CCCCCN(CCCCC)C(=O)C(CCC(=O)O)NC(=O)c1ccc(Cl)c(Cl)c1 (stereo not given)	inactive
CCN(CC)CCCN(c1ccccc1)C1Cc2ccccc2C1	1.78 µM (active)
CCN(CC)CCNC(=O)c1cc(S(C)(=O)=O)ccc1OC	inactive
CC(C)NNC(=O)c1ccncc1	inactive
CCCCNc1ccc(C(=O)OCCN(C)C)cc1	inactive
CC(=O)[C@@]1(O)CC[C@H]2[C@@H]3CCC4=CC(=O)CC[C@]4(C)[C@H]3CC[C@@]21C	inactive
NS(=O)(=O)c1cc2c(cc1Cl)NC(C1CC3C=CC1C3)NS2(=O)=O (stereo not given)	inactive
NC(N)=NC(=O)Cc1c(Cl)cccc1Cl	12.6 µM (active)
CCCN(CCC)CCc1cccc2c1CC(=O)N2	inactive
COCC(=O)O[C@]1(CCN(C)CCCc2nc3ccccc3[nH]2)CCc2cc(F)ccc2[C@@H]1C(C)C	1.12 µM (active)
CN(C)CC/C=C1\c2ccccc2COc2ccccc21	12.6 µM (active)
CCCOc1ccccc1-c1nc2n[nH]nc2c(=O)[nH]1	inactive
Cc1ccc(Cl)c(Nc2ccccc2C(=O)O)c1Cl	inactive

====

- MEASUREMENT DESCRIPTION: qHTS of pediatric cancer cell lines to identify multiple opportunities for drug repurposing: Primary screen for SK-N-SH cells (AID 1347098);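 further: DMSO served as neutral control and bortezomib at 2.3 µM as positive control; nearly all actives have a fitted effect of over 65% in size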
- RECORDED CONDITIONS: SK-N-SH viability, CellTiter-Glo luminescence, 48 h; series mostly up to 57 µM
Records with an inconclusive call do not appear. Calls of active or inactive are those of the source. The call rests on the fitted dose curve; in most records, active means well fitted cell-killing curve with a large enough effect; inconclusive means small, poorly fitted or top-dose-only effect; inactive means no such curve, though single readings can be large or run the other way.

SAMPLE SMILES	outcome
COc1cc(C(=O)OCCCN2CCCN(CCCOC(=O)c3cc(OC)c(OC)c(OC)c3)CC2)cc(OC)c1OC	inactive
N[C@@H](COP(=O)(O)O)C(=O)O	inactive
CC(=O)Nc1nnc(S(N)(=O)=O)s1	inactive

====

- Tested on: CP260
- MEASUREMENT DESCRIPTION: qHTS profiling for inhibitors of Plasmodium falciparum proliferation (AID 504749); further: nearly all actives have a fitted effect of over 60% in size
- RECORDED CONDITIONS: P. falciparum in erythrocytes, SYBR Green DNA, 72 h; series mostly up to 28.7 µM
Records with an inconclusive call do not appear. The source made the active and inactive calls. The call rests on the fitted dose curve; in most records, active means well fitted inhibition curve with a large enough effect; inconclusive means small, poorly fitted or top-dose-only effect; inactive means flat fitted curve, though single readings scatter.
Possible outcomes: yes (1) for active, no (0) for inactive

SAMPLE SMILES	ASSIGNED LABEL
C[N+](C)(C)CCCCCCCCCC[N+](C)(C)C	yes (1)
Cc1ccc(=O)n(-c2ccccc2)c1	no (0)
CC(=O)Nc1nnc(S(N)(=O)=O)s1	no (0)
CC(=O)Oc1cc(C(C)C)c(OCCN(C)C)cc1C	no (0)
NCCCNCCSP(=O)(O)O	no (0)
Nc1nc(N)c2nc(-c3ccccc3)c(N)nc2n1	no (0)
CCN1CCc2nc(N)oc2CC1	no (0)

====

- Tested on: Hek293T
- MEASUREMENT DESCRIPTION: Primary qHTS to identify gynecologic anti-cancer compounds using libraries of approved drugs and bioactive compounds (AID 1345084); further: nearly all actives have a fitted effect of over 55% in size
- RECORDED CONDITIONS: Gynecologic cancer cell panel viability, ATPlite luminescence, 48 h, control line for the selectivity index; series mostly up to 57.5 µM
Records with an inconclusive call do not appear. Calls of active or inactive are those of the source. Calls follow the shape of the dose curve; as a rule, active = well fitted cell-killing curve with a large enough effect; inconclusive = small, poorly fitted or top-dose-only effect, or effect the other way; inactive = flat fitted curve, though single readings scatter.
MEASURE NAME: activity change, negative = cytotoxicity

MOLECULE	MEASURED TARGET	MEASURE NAME	REPORTED RESULT
O=C(O)CN(CCN(CC(=O)O)CC(=O)O)CCN(CC(=O)O)CC(=O)O	Hek293T	activity change, negative = cytotoxicity	inactive
CCCOc1ccccc1-c1nc2n[nH]nc2c(=O)[nH]1	Hek293T	activity change, negative = cytotoxicity	inactive
CN(C)CC/C=C1\c2ccccc2COc2ccccc21	Hek293T	activity change, negative = cytotoxicity	inactive
CC(C)(Oc1ccc(CCNC(=O)c2ccc(Cl)cc2)cc1)C(=O)O	Hek293T	activity change, negative = cytotoxicity	inactive
CCN(Cc1ccncc1)C(=O)C(CO)c1ccccc1 (stereo unspecified)	Hek293T	activity change, negative = cytotoxicity	inactive
COc1ccc2c(c1OC)C(=O)O[C@@H]2[C@H]1c2c(cc3c(c2OC)OCO3)CCN1C	Hek293T	activity change, negative = cytotoxicity	inactive

====

- System: CP203
- MEASUREMENT DESCRIPTION: qHTS profiling for inhibitors of Plasmodium falciparum proliferation (AID 504749); further: nearly all actives have a fitted effect of over 60% in size; further: potency means the concentration at half of the fitted maximal effect
- RECORDED CONDITIONS: P. falciparum in erythrocytes, SYBR Green DNA, 72 h; series mostly up to 28.7 µM
Results filed as inconclusive are left out. Active and inactive are the calls of the source. Calls follow the shape of the dose curve; as a rule, active = well fitted inhibition curve with a large enough effect; inconclusive = small, poorly fitted or top-dose-only effect; inactive = flat fitted curve, though single readings scatter.

MOLECULE	Potency
FC(F)(F)c1ccccc1-n1ccnc1	inactive
CC(=O)Oc1cc(C(C)C)c(OCCN(C)C)cc1C	inactive
CCCCCCCC/C=C\CCCCCCCC(=O)NCc1ccc(O)c(OC)c1	inactive
Cc1ccc(Cl)c(Nc2ccccc2C(=O)O)c1Cl	inactive
CN=C(NC#N)NCCSCc1nc[nH]c1C	inactive
NC(=Nc1ccccc1)Nc1ccccc1	inactive
CCCOc1ccccc1-c1nc2n[nH]nc2c(=O)[nH]1	inactive
Cc1ccc(=O)n(-c2ccccc2)c1	inactive
CN(C)CCCN1c2ccccc2Sc2ccccc21	4.05 µM (active)
NCCCNCCSP(=O)(O)O	inactive
Cc1scc2c1N(C(=O)CN1CCN(C)CC1)c1ccccc1NC2=O	inactive
CC1=NS(=O)(=O)c2cc(Cl)ccc2N1	inactive
NS(=O)(=O)c1cc2c(cc1Cl)NC(C1CC3C=CC1C3)NS2(=O)=O (stereo not drawn)	inactive

Data origin: PubChem BioAssay (NCATS)
